Experiment: Metabolite profiling by HPLC radiochromatography in plasma, urine and faeces
Format: in vivo, human
Conditions: male, human, plasma; radiochromatography; single oral 20-mg dose; median and range
Catalogue of Tmax readings, one per entry.
The response must be a number in h with no trailing unit.

Below, 4 molecules whose answers are already recorded.
CCOc1cc([C@@H](CS(C)(=O)=O)N2C(=O)c3cccc(NC(=O)COC4OC(C(=O)O)C(O)C(O)C4O)c3C2=O)ccc1OC (some centres unmarked) [Metabolite M16]; 5.3
CCOc1cc([C@@H](CS(C)(=O)=O)N2C(=O)c3cccc(N)c3C2=O)ccc1OC1OC(C(=O)O)C(O)C(O)C1O (some centres unmarked) [Metabolite M14]; 2.5
CCOc1cc([C@@H](CS(C)(=O)=O)N2C(=O)c3cccc(NC(C)=O)c3C2=O)ccc1OC; 1.8
CCOc1cc([C@@H](CS(C)(=O)=O)N2C(=O)c3cccc(NC(C)=O)c3C2=O)ccc1O[C@@H]1O[C@H](C(=O)O)[C@@H](O)[C@H](O)[C@H]1O [Metabolite M12, O-desmethyl apremilast glucuronide]; 2.5

Now take the following molecule into account.
What measured Tmax goes with COc1ccc([C@@H](CS(C)(=O)=O)N2C(=O)c3cccc(NC(C)=O)c3C2=O)cc1OC1OC(C(=O)O)C(O)C(O)C1O (some centres unmarked) [Metabolite M13] ?
2.5
